Ref: PubChem BioAssay (NCI)

# Tested on: LOX IMVI melanoma
# test_summary: NCI tumour cell line growth inhibition, 48 h
TGI for assorted molecules

S=C(Nc1ccccc1)c1ccccn1 | > 100 µM
Cn1c2ccccc2c2c(=O)n(CCCC(=O)NCC(=O)OC(=NC3CCCCC3)NC3CCCCC3)c3c(-c4ccccc4)nnn3c21 | 97.3 µM
CCCCCCn1c(-c2ccc(C(=O)O/N=C(\N)c3ccc(OC)cc3)cc2)nc(-c2ccccc2)c1-c1ccccc1 | 0.341 µM

Enquiry: Report TGI for Fc1ccc(C(OCCN2CCC3CCC(C2)N3CCCc2ccccc2)c2ccc(F)cc2)cc1 (configuration not stated)
Return: 13.8 µM

Enquiry: Supply recorded TGI for `C[C@]12CC[C@H]3[C@@H](CCC4=CC(=O)CC[C@@H]43)[C@@H]1CC[C@@H]2OC1(O)C(=O)c2ccccc2C1=O` here.
Return: > 100 µM

Enquiry: Please report TGI for the following molecule: `Cc1cc2c(C(C)C)c(O)c(O)c3coc(/c1=c1/c(C)cc4c(C(C)C)c(=O)c(=O)c5coc1c45)c32`
Return: 18 µM

Enquiry: Please report the measured TGI for COc1cc2c(cc1OC)-c1c(cnn1C1OC(COC(C)=O)C(OC(C)=O)C(OC(C)=O)C1OC(C)=O)CC2 (configuration not stated)
Return: > 100 µM

Enquiry: Let me know recorded TGI for `CSc1nc(C)cc(Nc2ccc(O)c(CN3CCCCC3)c2)n1` , thanks.
Return: > 100 µM

Enquiry: Tell us which TGI value is on record for CN1C(c2ccccc2)CC(=Nc2ccccc2)CC1c1ccccc1 (configuration not stated)
Return: 16.8 µM

Enquiry: Please supply the value of reported TGI for the item COc1ccc(/C=C/C(=O)NCC(NC(=O)/C=C/c2ccc(OC)c(OC)c2)C(=O)O)cc1OC (configuration not stated)
Return: > 100 µM

Enquiry: Recall and state the measured TGI for `CC(=O)Nc1c(C)cc(OCC(=O)O)cc1C` .
Return: > 100 µM

Enquiry: Give the reported TGI for this molecule. COC(=O)Nc1ccc2ccc3c(NC(=O)OC)ccc4ccc1c2c43 (tested in a mixture with another compound)
Return: 19 µM

----------
# Tested on: CCRF-CEM leukemia
# test_summary: NCI tumour cell line growth inhibition, 48 h
Listing of recorded TGI by entry.
# output: bare number, implied unit µM

Worked examples follow.
COC(=O)n1c(=O)nc2c3c(ncn21)Oc1c(c(-c2ccccc2)nn1-c1ccccc1)C3c1ccc(Cl)cc1 (stereo not given) | 3.27
CCCOc1ccc(/C=C/c2cc(OC)c(OC)c(OC)c2)cc1 | 24.5

Enquiry: Provide TGI, recorded with CCRF-CEM leukemia, of `FC(F)(F)c1ccc2c(c1)N(CCCN1CCN(C3CC3)CC1)c1ccccc1S2`
Return: 29.3

----------
# Test system: NCI/ADR-RES ovarian
# test_summary: NCI tumour cell line growth inhibition, 48 h
# maps each entry to its TGI
# output: bare number, implied unit µM

Example entries and their recorded answers appear below.
COC(=O)c1c2c(c(C)[n+]([O-])c1C)C(=O)C=C(NCc1ccc(Cl)cc1)C2=O | 3.22
CCOC(=O)CCc1c(C(=O)OCC)[nH]c(/C=C2/NC(=O)C(C)=C2CC)c1C | 36.9
CC[C@@]1(O)C(=O)NCc2c1cc1n(c2=O)Cc2cc3cc4c(cc3nc2-1)OCO4 | 1.56
COc1ccc2c(c1)[nH]c(=O)c1c3cccnc3cn21 | 0.0571
O=[N+]([O-])c1cccc(-c2nc3sccn3c2-c2ccnc(NCCCNS(=O)(=O)c3ccc(F)cc3)n2)c1 | 7.31

Enquiry: Specify measured TGI for CC1CCCc2c(-c3ccc(Cl)cc3)nc(N)c(C#N)c21 (stereo unspecified) .
Return: 71.3

Enquiry: Give the value of TGI reported for the following: `CC[C@@]1(O)C(=O)OCc2c1c(Cl)c1n(c2=O)Cc2cc3ccccc3nc2-1`
Return: 15.1

Enquiry: Answer with the recorded TGI for the compound listed here: `COc1ccc2oc(=N)c(C(N)=S)cc2c1`
Return: 37.1

----------
# Tested on: SF-268 CNS
# test_summary: NCI tumour cell line growth inhibition, 48 h
// TGI lookup, one value per entry
// return numeric value only (unit: µM, not printed)

Solved cases below.
N#CCCc1nc2ccc(Br)cc2c(=O)n1-c1ccc(O)c([N+](=O)[O-])c1 | 63.1
CC(C)(C)Cn1c(N)nc2ccc(-c3[nH]c(C(C)(C)C)nc3-c3ccc(F)cc3)nc21 | 28.7
O=C(CCN(CCO)CCO)Nc1ccc2c(c1)C(=O)c1ccc(NC(=O)CCN(CCO)CCO)cc1C2=O | 60.6

Enquiry: Report TGI, nothing else, for this compound: CCOP(=O)(CS(C)=O)O[C@@H]1C[C@H](C)CC[C@H]1C(C)C (some centres not stated)
Return: 21.3

Enquiry: Indicate its recorded TGI; the compound in question is CN1C(c2ccccc2)CC(=Nc2ccccc2)CC1c1ccccc1 (configuration not stated)
Return: 28.7

Enquiry: Give recorded TGI. O=C(Nc1ccc(C(F)(F)F)cc1[N+](=O)[O-])C(=O)C(C(=O)c1ccc2ccccc2c1)C1OC(=O)c2ccccc21 (configuration not stated)
Return: 52

Enquiry: Give the reported value of TGI for this record: `O=C1C(NCCO)=C(N2CC2)C(=O)C(NCCO)=C1N1CC1`
Return: 76.8

----------
# Test system: SR leukemia
# test_summary: NCI tumour cell line growth inhibition, 48 h; in the data active = GI50 below about 0.43 µM; inactive = the rest
Use one of these outcomes when replying: class 1 (active), class 0 (inactive)

COc1ccc(Cl)cc1N1C(=O)C(Cl)=C(Nc2cccc(O)c2)C1=O | class 0
COc1nccc(-c2c(-c3ccc(F)cc3)ncn2C2CCC(O)CC2)n1 (stereo not given) | class 0

Enquiry: Called result for CCCCCCN1C(=O)/C(=c2\sc3n(c2=O)C2C(NN=3)N(CC)C(=O)N2CC)c2ccccc21 (stereo not given)
Return: class 0

Enquiry: Name the outcome recorded for `c1ccc(-c2nc(Nc3ccc(-c4nc5ccccc5[nH]4)cc3)nc(N3CCOCC3)n2)cc1` in the assay.
Return: class 1

Enquiry: Please let me know the test result on file for `COc1ccc(NC2=C(Sc3nc(C)cc(C)n3)C(=O)N(Cc3ccccc3)C2=O)cc1Cl` .
Return: class 0

----------
# Test system: KM12 colon
# test_summary: NCI tumour cell line growth inhibition, 48 h
This section presents compounds with their documented log10(TGI) values.
A difference of one corresponds to tenfold TGI; all values are log10 with TGI in µM.

Examples with their reported log10(TGI) follow.
CC(SC1=CC(=O)c2c(Cl)ccc(O)c2C1=O)C(=O)O (stereo not given) | 1.58
CCCCCCCCCC(=O)OCC1(CO)C/C(=C/CC(C(C)C)C(C)C)C(=O)O1 (stereo not given) | 1.92
CC(C)=CCC/C(C)=C/Cc1cc(/C=C/c2cc(O)c(CC=C(C)C)c(O)c2)cc(O)c1O | 1.17
CCCCCCCCCCCCCCCCC(C(=O)O)C(O)(CC(=O)O)C(=O)O (stereo not given) | 1.57
O=[N+]([O-])c1cccc(-c2nc3sccn3c2-c2ccnc(NCCCNS(=O)(=O)c3ccc(F)cc3)n2)c1 | 0.90
COC(=O)n1c(=O)nc2c3c(ncn21)Oc1c(c(-c2ccccc2)nn1-c1ccccc1)C3c1ccc(Cl)cc1 (stereo not given) | 0.42
Nc1cc(N)c2nc(-c3ccccc3)c(Nc3ccc(F)cc3)nc2c1 | 1.47

Proceed to the following item.
Enquiry: Respond only with log10(TGI) recorded for O=C1N=C2c3c(sc4c3CCCC4)N=CN2C1N=Nc1ccc(Cl)cc1 (stereo not given)
Return: 1.64

----------
# Test system: NCI-H460 lung
# test_summary: NCI tumour cell line growth inhibition, 48 h
Parameter: TGI. Scope: all listed entries.

Some solved entries appear below for comparison.
COc1ccc(C2=NNC(c3ccc(-c4ccc(OC)cc4[N+](=O)[O-])o3)C2)cc1 (stereo not given) | > 100 µM
CC1C2CC(C(C3C(=O)C4CC3C(C)(C)C4C)C2=O)C1(C)C (stereo not given) | > 100 µM
Fc1ccc(C(OCCN2CCC3CCC(C2)N3CCCc2ccccc2)c2ccc(F)cc2)cc1 (stereo not given) | 7.51 µM

Enquiry: Answer with the recorded TGI of `COc1ccc(/C=C2/C(=O)N(C(=O)c3ccc(Cl)cc3)N=C2C)cc1OC` only.
Return: > 100 µM

Enquiry: Tell us which TGI value is on record for CCNC(=O)C(O)C1(O)CCC2[C@@H]3CCC4=CC(=O)C=C[C@]4(C)C3[C@@H](O)C[C@@]21C (stereo not given in full)
Return: > 100 µM

----------
# Test system: SK-MEL-28 melanoma
# test_summary: NCI tumour cell line growth inhibition, 48 h
Overview of recorded GI50 for various compounds

S=C(Nc1ccccc1)c1ccccn1 | > 100 µM
COC(=O)C1=CN(CC2=CC(=O)C(C)=CC2=O)C=C(C(=O)OC)C1c1cccc(OC)c1OC | 31 µM
CC[C@@]1(O)C(=O)NCc2c1cc1n(c2=O)Cc2cc3cc4c(cc3nc2-1)OCO4 | 45.1 µM
COc1nccc(-c2c(-c3ccc(F)cc3)ncn2C2CCC(O)CC2)n1 (centres undefined) | > 58.3 µM
COC(=O)c1c2c(c(C)[n+]([O-])c1C)C(=O)C=C(NCc1ccc(Cl)cc1)C2=O | 0.733 µM
COc1ccc(/C=C/C(=O)c2ccc(Nc3ncnc4ccccc34)cc2)cc1OC | 13.7 µM
Cc1c(C(=O)/C=C/c2ccc(O)cc2)nnn1-c1ccnc2c(C(F)(F)F)cccc12 | 51.8 µM
CCCCCC(=O)N1c2ccccc2NC2=C(C(=O)CC(c3ccc(OC)c(OC)c3)C2)C1c1ccc(C(F)(F)F)cc1 (centres undefined) | > 100 µM

Let us examine a further case.
Enquiry: Check the records and state GI50 for OCCNc1nc(NCCO)nc(Nc2ccc(C3=NN(c4cc(Cl)cc(Cl)c4)C(c4ccc(Cl)cc4)C3)cc2)n1 (centres undefined)
Return: 1.61 µM
